Biological target: G protein-coupled receptor kinase 6 (Homo sapiens);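 note: values are averaged percent inhibition of GRK6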
Details: at 1 µM
metricName: inhibition (%)
Write the value in % as a bare number.

Answered cases to consult:
Req: Could you share which inhibition value was measured for `Oc1cccc(-c2nc(-c3ccccc3)[nH]c2-c2ccncc2)c1` ?
Resp: 4.9

Req: Could you share which inhibition value was measured for `Nc1nccc(-c2c(-c3ccc(F)cc3)nn3cc(C(F)(F)F)ccc23)n1` ?
Resp: -0.24

Req: Could you share which inhibition value was measured for `COc1cc(Nc2nccc(-c3cnn4ncccc34)n2)cc(OC)c1` ?
Resp: -0.01

Req: Could you share which inhibition value was measured for `NC(=O)c1sc(-n2cnc3ccccc32)cc1OCc1ccccc1Br` ?
Resp: 3.01

Req: Could you share which inhibition value was measured for `FC(F)(F)c1ccc(-c2nn3ncccc3c2-c2ccnc(Nc3ccc4c(c3)OCCO4)n2)cc1` ?
Resp: 12.6

More entries:
Req: Could you share which inhibition value was measured for `Cc1ccc2c(c1)/C(=N/Nc1ccc(S(N)(=O)=O)cc1)C(=O)N2` ?
Resp: -1.05

Req: Could you share which inhibition value was measured for `N#Cc1cccc(Nc2nccc(-c3cnn4ncccc34)n2)c1` ?
Resp: 8.01

Req: Could you share which inhibition value was measured for `NS(=O)(=O)c1ccc(-c2cc3ccncc3cc2OCc2ccccc2)cc1` ?
Resp: 8.2

Req: Could you share which inhibition value was measured for `NC(=O)c1cccc(Nc2nccc(Nc3cccc(F)c3)n2)c1` ?
Resp: 0.77

Req: Could you share which inhibition value was measured for `CN(C)C(=O)O[C@@H]1CN[C@@H](C#Cc2cc3ncnc(Nc4ccc(OCc5cccc(F)c5)c(Cl)c4)c3s2)C1` ?
Resp: -1.42

Req: Could you share which inhibition value was measured for `CN(c1ccc(NC(=O)Nc2ccc(OC(F)(F)F)cc2)cc1)c1ccnc(Nc2cccc(S(N)(=O)=O)c2)n1` ?
Resp: -2.97

Req: Could you share which inhibition value was measured for `NS(=O)(=O)c1cccc(-c2cc3ccncc3cc2OCc2ccccc2)c1` ?
Resp: 2.95

Req: Could you share which inhibition value was measured for `COc1cccc(-n2nc(C)c3c(N/N=C(\C)c4ccncc4)ncnc32)c1` ?
Resp: 1.13

Req: Could you share which inhibition value was measured for `CCS(=O)(=O)c1ccc(OC)c(Nc2nccc(N(C)c3ccc4c(C)n[nH]c4c3)n2)c1` ?
Resp: 1.67

Req: Could you share which inhibition value was measured for `O=C(Nc1ccc(Oc2ccc3[nH]c(NC(=O)c4ccco4)nc3c2)cc1)Nc1cc(C(F)(F)F)ccc1F` ?
Resp: -4.1
